# SYSTEM_UNDER_TEST: VBC / BRD4^BD1 ternary complex (Homo sapiens, UniProt O60885+P40337)
# Construct: VHL (54-213), ElonginB (17-112) ElonginC (1-104); BRD4 (44-168); His6 (N, cleaved yes); made in house
# PROCEDURE_TEXT: SPR ternary complex binding, VBC surface with preformed PROTAC/BRD4 BD1 complex
EXPERIMENTAL_READOUT: α (cooperativity, KLP/KLPT)

A = Cc1ncsc1-c1ccc(CNC(=O)[C@@H]2C[C@@H](O)CN2C(=O)[C@@H](NC(=O)COCCOCCOCc2cn(CCNC(=O)C[C@@H]3N=C(c4ccc(Cl)cc4)c4c(sc(C)c4C)-n4c(C)nnc43)nn2)C(C)(C)C)cc1 [Compound 14]
B = Cc1ncsc1-c1ccc(CNC(=O)[C@@H]2C[C@@H](O)CN2C(=O)[C@@H](NC(=O)COCCOCCOCCOCc2cn(CCNC(=O)C[C@@H]3N=C(c4ccc(Cl)cc4)c4c(sc(C)c4C)-n4c(C)nnc43)nn2)C(C)(C)C)cc1 [Compound 15]
## Task Hello, I am sorting some records. Could you say if A or B has the smaller α (cooperativity, KLP/KLPT) value? Pick one and reply with its label.
## Result A

* * *

# SYSTEM_UNDER_TEST: SMARCA2 (Homo sapiens)
# Construct: endogenous in cells; host or cells: A375
# PROCEDURE_TEXT: SMARCA2 degradation, MSD assay, dose response
# Format: cell-based
# Set-up: key: sum of trapezoids of POC vs dose points, h = 1
# EXPERIMENTAL_SETUP: SMARCA2 MSD assay, A375 cells, 2 h
EXPERIMENTAL_READOUT: AUC (area under the dose-response curve)

Some molecules with known AUC (area under the dose-response curve) results, for comparison:
# SMILES_STRUCTURE, EXPERIMENTAL_READOUT, NUMBER
measured = [
    ("Cc1ncsc1-c1ccc([C@H](C)NC(=O)[C@@H]2C[C@@H](O)CN2C(=O)[C@@H](NC(=O)c2cccc(N3CCN(c4nc(-c5ccccc5O)nnc4N)CC3)n2)C(C)(C)C)cc1", "AUC (area under the dose-response curve)", 85),
    ("Cc1ncsc1-c1ccc([C@H](C)NC(=O)[C@@H]2C[C@@H](O)CN2C(=O)[C@@H](NC(=O)c2cccc(N3CCN(c4cc(-c5ccccc5O)nnc4N)CC3)n2)C(C)(C)C)cc1", "AUC (area under the dose-response curve)", 28),
    ("Cc1ncsc1-c1ccc([C@H](C)NC(=O)[C@@H]2C[C@@H](O)CN2C(=O)[C@@H](NC(=O)c2ccnc(N3CCN(c4cc(-c5ccccc5O)nnc4N)CC3)c2)C(C)(C)C)cc1", "AUC (area under the dose-response curve)", 13),
    ("Cc1ncsc1-c1ccc([C@H](C)NC(=O)[C@@H]2C[C@@H](O)CN2C(=O)[C@@H](NC(=O)c2csc(N3CCN(c4cc(-c5ccccc5O)nnc4N)CC3)n2)C(C)(C)C)cc1", "AUC (area under the dose-response curve)", 28),
    ("Cc1ncsc1-c1ccc([C@H](C)NC(=O)[C@@H]2C[C@@H](O)CN2C(=O)[C@@H](NC(=O)CCc2ccnc(N3CCN(c4cc(-c5ccccc5O)nnc4N)CC3)c2)C(C)(C)C)cc1", "AUC (area under the dose-response curve)", 75),
]

P = Cc1ncsc1-c1ccc([C@H](C)NC(=O)[C@@H]2C[C@@H](O)CN2C(=O)[C@@H](NC(=O)Cc2ccnc(N3CCN(c4cc(-c5ccccc5O)nnc4N)CC3)c2)C(C)(C)C)cc1
Q = Cc1ncsc1-c1ccc([C@H](C)NC(=O)[C@@H]2C[C@@H](O)CN2C(=O)[C@@H](NC(=O)c2cccc(N3CCN(c4cc(-c5ccccc5O)nnc4N)CC3)c2)C(C)(C)C)cc1
## Task Endpoint returns whichever of P and Q has the numerically higher AUC (area under the dose-response curve). Pick one and reply with its label.
## Result P

* * *

# SYSTEM_UNDER_TEST: VBC / BRD4^BD2 ternary complex (Homo sapiens, UniProt O60885+P40337)
# Construct: VHL (54-213), ElonginB (17-112) ElonginC (1-104); ternary complex formation with both bromodomains, BRD4^BD1 and BRD4^BD2, independently; His6 (N)
# PROCEDURE_TEXT: SPR ternary complex binding, VBC surface with preformed PROTAC/BRD4 BD2 complex
# EXPERIMENTAL_SETUP: SPR, VHL, PROTAC, error SEM, N = 3, read-out: KLPT (ternary complex binding affinity)
EXPERIMENTAL_READOUT: Kd (nM)

Some compounds with known Kd results, for comparison:
# SMILES_STRUCTURE, UNIT_OF_MEASUREMENT, Kd
records = [
    ("Cc1ncsc1-c1ccc(CNC(=O)[C@@H]2C[C@@H](O)CN2C(=O)[C@@H](NC(=O)COCCOCc2cn(CCNC(=O)C[C@@H]3N=C(c4ccc(Cl)cc4)c4c(sc(C)c4C)-n4c(C)nnc43)nn2)C(C)(C)C)cc1", "nM", 10),
    ("Cc1ncsc1-c1ccc(CNC(=O)[C@@H]2C[C@@H](O)CN2C(=O)[C@@H](NC(=O)COCc2cn(CCNC(=O)C[C@@H]3N=C(c4ccc(Cl)cc4)c4c(sc(C)c4C)-n4c(C)nnc43)nn2)C(C)(C)C)cc1", "nM", 6),
]

1 = Cc1ncsc1-c1ccc(CNC(=O)[C@@H]2C[C@@H](O)CN2C(=O)[C@@H](NC(=O)COCCOCCOCc2cn(CCNC(=O)C[C@@H]3N=C(c4ccc(Cl)cc4)c4c(sc(C)c4C)-n4c(C)nnc43)nn2)C(C)(C)C)cc1
2 = Cc1ncsc1-c1ccc(CNC(=O)[C@@H]2C[C@@H](O)CN2C(=O)[C@@H](NC(=O)COCCOCCOCCOCc2cn(CCNC(=O)C[C@@H]3N=C(c4ccc(Cl)cc4)c4c(sc(C)c4C)-n4c(C)nnc43)nn2)C(C)(C)C)cc1
## Task Endpoint returns whichever of 1 and 2 has the numerically higher Kd. Pick one and reply with its label.
## Result 2

* * *

# SYSTEM_UNDER_TEST: SMARCA2 (Homo sapiens)
# Construct: endogenous in cells; host or cells: A375
# PROCEDURE_TEXT: SMARCA2 degradation, MSD assay, dose response
# Type: cell-based
# EXPERIMENTAL_SETUP: A-375; SMARCA2 degraded, MSD assay, A375 cells, 2 h timepoint
EXPERIMENTAL_READOUT: Dmax (%)

# COMPOUND, EXPERIMENTAL_READOUT, UNIT_OF_MEASUREMENT, NUMBER
data = [
    ("Cc1ncsc1-c1ccc([C@H](C)NC(=O)[C@@H]2C[C@@H](O)CN2C(=O)[C@@H](NC(=O)c2cccc(N3CCN(c4nc(-c5ccccc5O)nnc4N)CC3)n2)C(C)(C)C)cc1", "Dmax", "%", 74),
    ("Cc1ncsc1-c1ccc([C@H](C)NC(=O)[C@@H]2C[C@@H](O)CN2C(=O)[C@@H](NC(=O)c2csc(N3CCN(c4cc(-c5ccccc5O)nnc4N)CC3)n2)C(C)(C)C)cc1", "Dmax", "%", 96),
    ("Cc1ncsc1-c1ccc([C@H](C)NC(=O)[C@@H]2C[C@@H](O)CN2C(=O)[C@@H](NC(=O)c2cccc(N3CCN(c4cc(-c5ccccc5O)nnc4N)CC3)n2)C(C)(C)C)cc1", "Dmax", "%", 95),
]

P = Cc1ncsc1-c1ccc([C@H](C)NC(=O)[C@@H]2C[C@@H](O)CN2C(=O)[C@@H](NC(=O)CCc2ccnc(N3CCN(c4cc(-c5ccccc5O)nnc4N)CC3)c2)C(C)(C)C)cc1
Q = Cc1ncsc1-c1ccc(CNC(=O)C2C[C@@H](O)CN2C(=O)C(NC(=O)C2(F)CC2)C(C)(C)C)c(OCCc2ccc(CN3CCN(c4cc(-c5ccccc5O)nnc4N)CC3)cc2)c1 (stereo in doubt) [Compound 11, reference compound]
## Task Endpoint returns whichever of P and Q has the numerically higher Dmax. Pick one and reply with its label.
## Result P

* * *

# SYSTEM_UNDER_TEST: SMARCA2 (Homo sapiens, UniProt P51531)
# Construct: endogenous in cells; host or cells: A375
# Sequence (P51531 whole entry): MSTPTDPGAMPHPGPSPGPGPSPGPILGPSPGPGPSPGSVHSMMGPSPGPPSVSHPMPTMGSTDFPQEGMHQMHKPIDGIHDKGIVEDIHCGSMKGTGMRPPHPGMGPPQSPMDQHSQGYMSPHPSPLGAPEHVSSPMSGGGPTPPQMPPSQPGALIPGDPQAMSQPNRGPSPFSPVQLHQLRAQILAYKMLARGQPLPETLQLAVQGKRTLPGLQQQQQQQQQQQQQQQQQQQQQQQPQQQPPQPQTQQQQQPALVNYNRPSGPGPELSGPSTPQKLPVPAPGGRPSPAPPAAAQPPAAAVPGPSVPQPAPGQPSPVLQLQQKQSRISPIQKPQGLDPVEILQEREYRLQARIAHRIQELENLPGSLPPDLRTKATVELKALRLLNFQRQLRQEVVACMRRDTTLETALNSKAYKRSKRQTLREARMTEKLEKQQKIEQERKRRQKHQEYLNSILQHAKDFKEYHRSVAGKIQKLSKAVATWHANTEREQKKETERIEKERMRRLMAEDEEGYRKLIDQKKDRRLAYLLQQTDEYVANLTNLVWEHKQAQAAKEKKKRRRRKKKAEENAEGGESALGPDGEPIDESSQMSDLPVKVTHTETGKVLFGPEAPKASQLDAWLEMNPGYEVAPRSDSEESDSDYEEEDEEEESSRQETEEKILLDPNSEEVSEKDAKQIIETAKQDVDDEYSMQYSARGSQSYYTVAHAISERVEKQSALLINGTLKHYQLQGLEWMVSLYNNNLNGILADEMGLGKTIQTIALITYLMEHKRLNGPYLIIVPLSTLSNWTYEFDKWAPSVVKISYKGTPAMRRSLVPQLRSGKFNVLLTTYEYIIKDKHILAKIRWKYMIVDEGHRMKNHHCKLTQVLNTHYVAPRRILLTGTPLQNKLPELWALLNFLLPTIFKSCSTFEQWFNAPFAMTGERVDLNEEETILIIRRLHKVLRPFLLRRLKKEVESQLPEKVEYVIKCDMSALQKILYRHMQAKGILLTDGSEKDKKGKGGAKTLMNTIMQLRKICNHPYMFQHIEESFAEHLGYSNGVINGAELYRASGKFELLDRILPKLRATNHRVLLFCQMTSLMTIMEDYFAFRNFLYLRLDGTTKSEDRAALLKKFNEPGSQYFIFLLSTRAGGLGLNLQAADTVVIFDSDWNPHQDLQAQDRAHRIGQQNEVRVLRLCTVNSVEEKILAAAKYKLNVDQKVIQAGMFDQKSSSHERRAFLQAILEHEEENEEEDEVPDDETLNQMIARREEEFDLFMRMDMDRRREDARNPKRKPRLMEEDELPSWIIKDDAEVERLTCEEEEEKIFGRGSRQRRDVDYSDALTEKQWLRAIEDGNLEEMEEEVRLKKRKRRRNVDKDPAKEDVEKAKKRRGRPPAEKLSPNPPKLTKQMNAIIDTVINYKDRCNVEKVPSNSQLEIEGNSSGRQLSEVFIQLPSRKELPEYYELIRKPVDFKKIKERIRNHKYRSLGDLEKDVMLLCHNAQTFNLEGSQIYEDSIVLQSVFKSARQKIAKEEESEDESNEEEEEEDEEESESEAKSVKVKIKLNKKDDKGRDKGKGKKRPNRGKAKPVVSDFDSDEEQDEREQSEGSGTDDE
# PROCEDURE_TEXT: SMARCA2 degradation, MSD assay, dose response
# Assay type: cell-based
# EXPERIMENTAL_SETUP: A-375; SMARCA2 degraded, MSD assay, A375 cells, 2 h timepoint
EXPERIMENTAL_READOUT: Dmax (%)

# MOLECULE, Dmax [%]
records = [
    ("Cc1ncsc1-c1ccc([C@H](C)NC(=O)[C@@H]2C[C@@H](O)CN2C(=O)[C@@H](NC(=O)c2ccnc(N3CCN(c4cc(-c5ccccc5O)nnc4N)CC3)c2)C(C)(C)C)cc1", 98),
]

1 = Cc1ncsc1-c1ccc([C@H](C)NC(=O)[C@@H]2C[C@@H](O)CN2C(=O)[C@@H](NC(=O)CN2CCN(c3cc(-c4ccccc4O)nnc3N)CC2)C(C)(C)C)cc1 [Compound 6, reference compound]
2 = Cc1ncsc1-c1ccc([C@H](C)NC(=O)[C@@H]2C[C@@H](O)CN2C(=O)[C@@H](NC(=O)Cc2ccnc(N3CCN(c4cc(-c5ccccc5O)nnc4N)CC3)c2)C(C)(C)C)cc1
## Task Endpoint returns whichever of 1 and 2 has the numerically higher Dmax. Pick one and reply with its label.
## Result 1
(1: 96%, 2: 55%)

P = Cc1ncsc1-c1ccc([C@H](C)NC(=O)[C@@H]2C[C@@H](O)CN2C(=O)[C@@H](NC(=O)c2cccc(N3CCN(c4cc(-c5ccccc5O)nnc4N)CC3)c2)C(C)(C)C)cc1
Q = Cc1ncsc1-c1ccc([C@H](C)NC(=O)[C@@H]2C[C@@H](O)CN2C(=O)[C@@H](NC(=O)c2ccnc(N3CCN(c4cnnc(-c5ccccc5O)c4)CC3)c2)C(C)(C)C)cc1
## Task Hello, I am sorting some records. Could you say if P or Q has the smaller Dmax value? Pick one and reply with its label.
## Result Q

# credit: paper PMC10344917
